Tested on: NCI-H1793
Experiment: relative viability (nuclei count vs DMSO), 5 days (fraction); higher = more cells survive
Details: first compound 6.325 µM
EXPERIMENTAL_READOUT: relative viability
Keep it simple and answer with nothing but the number.

The following molecules have reported results that may help.
Cc1csc(=NC2CCCCC2)n1/N=C/c1ccc(O)c(O)c1O [MIM1] + COc1cc2c(Oc3ccc(NC(=O)C4(C(=O)Nc5ccc(F)cc5)CC4)cc3F)ccnc2cc1OCCCN1CCOCC1 [Foretinib] (partner 0.25 µM): 0.686
Cc1csc(=NC2CCCCC2)n1/N=C/c1ccc(O)c(O)c1O [MIM1] + C[C@]1(O)C[C@@H](c2nc(-c3ccc4ccc(-c5ccccc5)nc4c3)c3c(N)nccn32)C1 [Linsitinib] (partner 1 µM): 0.925
Cc1csc(=NC2CCCCC2)n1/N=C/c1ccc(O)c(O)c1O [MIM1] + CS(=O)(=O)CCNCc1ccc(-c2ccc3ncnc(Nc4ccc(OCc5cccc(F)c5)c(Cl)c4)c3c2)o1 [Lapatinib] (partner 2 µM): 0.669
Cc1csc(=NC2CCCCC2)n1/N=C/c1ccc(O)c(O)c1O [MIM1] + COc1cccc2cc(-c3nc([C@H]4CC[C@H](C(=O)O)CC4)n4ncnc(N)c34)[nH]c12 [OSI-027] (partner 0.5 µM): 0.256
Cc1csc(=NC2CCCCC2)n1/N=C/c1ccc(O)c(O)c1O [MIM1] + Cc1nc(Nc2ncc(C(=O)Nc3c(C)cccc3Cl)s2)cc(N2CCN(CCO)CC2)n1 [Dasatinib] (partner 0.075 µM): 0.359

Now take the following molecule into account.
## Task Which relative viability is reported for this molecule? Cc1csc(=NC2CCCCC2)n1/N=C/c1ccc(O)c(O)c1O [MIM1] + CC(=O)c1c(C)c2cnc(Nc3ccc(N4CCNCC4)cn3)nc2n(C2CCCC2)c1=O [Palbociclib] (partner 0.5 µM)
## Result 0.29

----------
Listed here: items and their measured relative viability.
Test system: NCI-H2009
Test: relative viability (nuclei count vs DMSO), 5 days (fraction); higher = more cells survive
Conditions: first compound 0.01 µM
Give your answer as a number; write no unit.

Answered examples (3):
Cc1cn(-c2cc(NC(=O)c3ccc(C)c(Nc4nccc(-c5cccnc5)n4)c3)cc(C(F)(F)F)c2)cn1 [Nilotinib] + Cc1nc(NC(=O)N2CCC[C@H]2C(N)=O)sc1-c1ccnc(C(C)(C)C(F)(F)F)c1 [Alpelisib] (partner 2 µM): 1.25
Cc1cn(-c2cc(NC(=O)c3ccc(C)c(Nc4nccc(-c5cccnc5)n4)c3)cc(C(F)(F)F)c2)cn1 [Nilotinib] + CC(C)C[C@H](NC(=O)[C@H](Cc1ccccc1)NC(=O)c1cnccn1)B(O)O [Bortezomib] (partner 0.002 µM): 1.16
Cc1cn(-c2cc(NC(=O)c3ccc(C)c(Nc4nccc(-c5cccnc5)n4)c3)cc(C(F)(F)F)c2)cn1 [Nilotinib] + CS(=O)(=O)CCNCc1ccc(-c2ccc3ncnc(Nc4ccc(OCc5cccc(F)c5)c(Cl)c4)c3c2)o1 [Lapatinib] (partner 2 µM): 1.08

Below: the item to evaluate.
## Task Identify the measured relative viability of Cc1cn(-c2cc(NC(=O)c3ccc(C)c(Nc4nccc(-c5cccnc5)n4)c3)cc(C(F)(F)F)c2)cn1 [Nilotinib] + Cc1cc(Nc2cc(N3CCN(C)CC3)nc(Sc3ccc(NC(=O)C4CC4)cc3)n2)n[nH]1 [Tozasertib] (partner 0.1 µM) for NCI-H2009.
## Result 0.577
